assay: PAMPA-BBB permeability assay; conditions: PAMPA, pH 7.4, Pe, in vitro permeability coefficient, PAMPA-BBB, PBS pH 7.4, Pe ± SEM
Papp vs 10 ×10⁻⁶ cm/s: less than gives true (1); not less than gives false (0).

* C#CCNCc1ccc2nc(N)sc2c1 | true (1)
* C#CCNC1CCc2nc(N)sc2C1 (stereo not shown) | true (1)
* C#CCNc1nc2c(s1)CC(N(CC#C)C(C)=O)CC2 (stereo not shown) | true (1)
* C#CCN(C)Cc1ccc2nc(N)sc2c1 | false (0)
* C#CCN(CC#C)Cc1ccc2nc(N)sc2c1 | false (0)
* CO/N=C(\C(=O)N[C@@H]1C(=O)N2C(C(=O)O)=C(COC(N)=O)CS[C@H]12)c1ccco1 [cefuroxime, reference compound] | true (1)
